Where these numbers come from: PubChem BioAssay (NCI)

System: HCC-2998 colon
PROTOCOL_TEXT: NCI tumour cell line growth inhibition, 48 h
MEASUREMENT_TYPE: TGI

Worked cases, TGI given:
# COMPOUND, REPORTED_RESULT
records = [
    ("O=C(/C=C/c1ccccc1O)c1ccccc1Cl", "> 100 µM"),
    ("Cc1ccc(C(=O)Oc2ccccc2)cc1N=NN(C)C", "> 100 µM"),
    ("COc1cc([C@@H]2c3cc4c(cc3[C@@H](NCc3cccc(C#N)c3)C3COC(=O)[C@@H]32)OCO4)cc(OC)c1O (some centres undefined)", "4.51 µM"),
    ("Cc1cc(NN=C(c2ccc(O)cc2)c2ccc(O)cc2)c([N+](=O)[O-])cc1[N+](=O)[O-]", "28.7 µM"),
    ("C=CCN1CCC(c2cc(C(=O)OCC)[nH]c2-c2cc(C)no2)C1=O (centres undefined)", "> 100 µM"),
    ("COc1ccccc1-c1c(C#N)c(N)[nH]c(=S)c1C#N", "> 100 µM"),
]

q: Record lookup: for HCC-2998 colon, what TGI belongs to Cc1nc2ccccc2c(=O)n1/N=C(\N=Nc1cc(Cl)ccc1Cl)c1ccccc1 ?
a: > 100 µM

q: Please provide the recorded TGI for CC(C)[C@H]1NC(=O)[C@H]2N=C(S[C@H]2C)[C@@H]2CCCN2C(=O)[C@H](Cc2ccccc2)NC(=O)[C@@H]2CSC(=N2)[C@@H](Cc2ccccc2)NC(=O)[C@@H]2CSC1=N2 , tested on HCC-2998 colon.
a: 28.2 µM

q: Quick check: TGI on HCC-2998 colon, item Cc1ccc(C2CC(c3ccc(Nc4ccnc5cc(Cl)ccc45)cc3)=NN2C=O)cc1 (centres undefined) ?
a: > 100 µM

----------
Tested on: LOX IMVI melanoma
PROTOCOL_TEXT: NCI tumour cell line growth inhibition, 48 h
compounds and their reported GI50

# COMPOUND, MEASUREMENT_TYPE, REPORTED_RESULT
rows = [
    ("Nc1ccccc1C#Cc1ccccc1C#Cc1cccs1", "GI50", "14 µM"),
    ("Cc1cc(NN=C(c2ccc(O)cc2)c2ccc(O)cc2)c([N+](=O)[O-])cc1[N+](=O)[O-]", "GI50", "3.8 µM"),
]

Next compound, please.
q: Which GI50 is listed for CC(O)[C@H](NC(=O)N[C@@H](CC(N)=O)c1nc(N2CCNCC2)no1)C(=O)O (stereo partly drawn) ?
a: > 100 µM

----------
Tested on: DU-145 prostate
PROTOCOL_TEXT: NCI tumour cell line growth inhibition, 48 h; in the data active = GI50 below about 0.43 µM; inactive = the rest
Please reply with one of these outcomes: active, inactive

Example results:
# COMPOUND, CLASS_LABEL
rows = [
    ("Nn1c(-c2ccc(Cl)cc2)nc2c(-c3ccc(Cl)cc3)nc3ccc(Cl)cc3c2c1=O", "inactive"),
    ("COc1ccc(-c2csc(Nc3cccc(-c4csc(C)n4)c3)n2)cc1", "inactive"),
    ("COc1ccc(C2NC(=S)NC3=C2CCOc2c3ccc3ccccc23)cc1 (stereo unspecified)", "inactive"),
    ("CCc1ccc2c(c1)N(CCO)C1=C(C(=O)OC1)C2c1cc(OC)c(OC)c(OC)c1 (stereo unspecified)", "active"),
    ("Nc1ccccc1C#Cc1ccccc1C#Cc1cccs1", "inactive"),
    ("CCOC(=O)c1c(CN2CCN(C)CC2)nc2ccc(Cl)cc2c1-c1ccccc1", "inactive"),
]

q: Hey, what did the test say about CC[C@H]1OC(=O)[C@H](C)[C@@H](O[C@H]2C[C@@](C)(OC)[C@@H](O)[C@H](C)O2)[C@H](C)[C@@H](O[C@@H]2O[C@H](C)C[C@H](N(C)C)[C@H]2O)[C@](C)(OC)C/C(C)=C2/O[C@@]1(C)C=C2C ?
a: inactive

q: Any idea what this test logged for C[As](C)SC1OCC(O)C(O)C1O (stereo unspecified) ?
a: active

q: For this compound, state the assay outcome: CC1(C)N=C(N)N=C(N)N1c1cccc(CCc2ccccc2)c1
a: inactive

q: Fill in: this test's call for CCn1c(-c2nonc2N)nc2cnc(Oc3cccc(NC(=O)c4ccc(N(C)C)cc4)c3)cc21 is ___
a: inactive

q: Fill in: this test's call for COc1cc2c3c(n(CCCNCCCNCCCN)c(=O)c2cc1OC)-c1cc2c(cc1C3=O)OCO2 is ___
a: inactive

q: What was the test verdict on CCOc1ccc2cc(-c3nn(CC4CCNCC4)c4ncnc(N)c34)ccc2c1 ?
a: inactive

q: In this assay, the call recorded for CS(=O)(=O)Nc1cc(-c2ccc3ncnc(Nc4cccc(Cl)c4)c3c2)cnc1Cl was what?
a: inactive

q: Look up the recorded call for O=C1Nc2ccc3c(c2/C1=C\c1cc2c(cc1Br)OCO2)OCO3 in this test.
a: inactive

q: Lab log entry: O=CN1N=C(c2cccc(Nc3ccnc4cc(Cl)ccc34)c2)CC1c1ccc(Cl)cc1 (stereo unspecified) — outcome as called in the assay?
a: inactive

q: # fetch the recorded call for CN1CC[C@H](c2c(O)cc(O)c3c(=O)cc(-c4ccccc4Cl)oc23)[C@H](O)C1 here
a: active

q: State the result this test recorded for C#C[C@]1(O)CC[C@H]2[C@@H]3CC=C4c5nc(N)sc5CC[C@]4(C)[C@H]3CC[C@@]21C .
a: inactive
